TGT: human thrombin (Homo sapiens, UniProt P00734)
Construct: biotin (chemical label)
RUN_DESCRIPTION: mRNA display selection against thrombin, selected sequences ranked by next-generation-sequencing frequency
Format: binding
SETTINGS: Round 3 of selection, ten washes; share of recovered sequences
Each record here notes measured percentage (%).
Express your answer in %, writing the number without its unit.

See these solved cases before continuing.
>>> print(df.to_string())
                            sequence_record                                       tgt  unit_name  result
0                                VTSTYMFMYA  human thrombin (Homo sapiens, UniProt P00734)          %   0.021
1  SIEFGLTFSF (MGCTSVHQETKKYQSSIEFGLTFSFSYTYNYEHVDVWGCGSADYKDDDDKKK)  human thrombin (Homo sapiens, UniProt P00734)          %   0.023
2  RDPYNVLISL (MGCTSVHQETKKYQSRDPYNVLISLSYTYNYEHVDVWGCGSADYKDDDDKKK)  human thrombin (Homo sapiens, UniProt P00734)          %   0.084
3  RDPGRLIFQS (MGCTSVHQETKKYQSRDPGRLIFQSSYTYNYEHVDVWGCGSADYKDDDDKKK)  human thrombin (Homo sapiens, UniProt P00734)          %  20.512
4  RSHGQFSFTF (MGCTSVHQETKKYQSRSHGQFSFTFSYTYNYEHVDVWGCGSADYKDDDDKKK)  human thrombin (Homo sapiens, UniProt P00734)          %   0.031

percentage (%) for SLFVEYRITY (MGCTSVHQETKKYQSSLFVEYRITYSYTYNYEHVDVWGCGSADYKDDDDKKK) ?
0.027

percentage (%) for QMSFRFEVRV (MGCTSVHQETKKYQSQMSFRFEVRVSYTYNYEHVDVWGCGSADYKDDDDKKK) ?
0.025

percentage (%) for QFHLEFAFTL (MGCTSVHQETKKYQSQFHLEFAFTLSYTYNYEHVDVWGCGSADYKDDDDKKK) ?
0.020

percentage (%) for RDPGRVIFEI (MGCTSVHQETKKYQSRDPGRVIFEISYTYNYEHVDVWGCGSADYKDDDDKKK) ?
10.038

percentage (%) for RDPGRIVFNN (MGCTSVHQETKKYQSRDPGRIVFNNSYTYNYEHVDVWGCGSADYKDDDDKKK) ?
1.144

* * *

TGT: human thrombin (Homo sapiens)
Construct: biotin (chemical label)
RUN_DESCRIPTION: mRNA display selection against thrombin, selected sequences ranked by next-generation-sequencing frequency
Type: binding
SETTINGS: Round 2 of selection, five washes; share of recovered sequences
Label Condition met when percentage (%) < 0.02%; otherwise Condition not met.

>>> df
                                  substance     category_label
0                                VTSTYMFMYA      Condition met
1  RDPGRLIFQS (MGCTSVHQETKKYQSRDPGRLIFQSSYTYNYEHVDVWGCGSADYKDDDDKKK)  Condition not met
2                                VVEFHFKWCI      Condition met
3  RDPGRIVFNN (MGCTSVHQETKKYQSRDPGRIVFNNSYTYNYEHVDVWGCGSADYKDDDDKKK)  Condition not met
4  RDPYNVLISL (MGCTSVHQETKKYQSRDPYNVLISLSYTYNYEHVDVWGCGSADYKDDDDKKK)      Condition met

Hello, I'm reviewing records and need to know if percentage (%) of RDPGRVIFEI (MGCTSVHQETKKYQSRDPGRVIFEISYTYNYEHVDVWGCGSADYKDDDDKKK) is below 0.02%. Could you check?
Condition not met

Hello, I'm reviewing records and need to know if percentage (%) of ETRIYIRFHT (MGCTSVHQETKKYQSETRIYIRFHTSYTYNYEHVDVWGCGSADYKDDDDKKK) is below 0.02%. Could you check?
Condition met

Hello, I'm reviewing records and need to know if percentage (%) of `AAVRLNSSS*` is below 0.02%. Could you check?
Condition met

Hello, I'm reviewing records and need to know if percentage (%) of HRLQIATVYT (MGCTSVHQETKKYQSHRLQIATVYTSYTYNYEHVDVWGCGSADYKDDDDKKK) is below 0.02%. Could you check?
Condition met

The reported measurements were obtained from patent US20160312212A1.
